Entry source: paper PMC11047535

assay: Pharmacokinetics in rat plasma after single subcutaneous administration (LC-MS/MS, non-compartmental analysis); assay type: in vivo, Sprague-Dawley (SD) rats; settings: Sprague-Dawley, rat, in vivo, sc; SD rats, single s.c. dose 4 mg/kg, plasma, LC-MS/MS, NCA, n = 5; read-out: MRT (mean residence time)
Positions of bridges follow the written chain, without caps; N, C: chain ends. Non-standard residues stand in square brackets, D forms with d. Residues, ends and D or L forms follow the SMILES beside them. *: point of attachment. X1 = CC[C@H](C)CCCCC(=O)*; Dab = NCC[C@H](N)C(=O)O
observable: MRT
Record the result as a number with its unit.

Exercise: What value of MRT has been reported for the following compound? CC[C@H](C)CCCCC(=O)N[C@@H](CCN)C(=O)N[C@H](C(=O)N[C@@H](CCN)C(=O)N[C@H]1CCNC(=O)[C@H]([C@@H](C)O)NC(=O)[C@H](CCN)NC(=O)[C@H](CCN)NC(=O)[C@H](CC(C)C)NC(=O)[C@@H](Cc2ccccc2)NC(=O)[C@H](CCN)NC1=O)[C@@H](C)O [PMB, polymyxin B] (X1-[Dab]T[Dab][Dab][Dab][dF]L[Dab][Dab]T; lactam 4-C)
Solution: 8.66 h
